Test Target: T1, recombinant His-tagged human PD-1 (Acro Biosystems) (human, UniProt Q15116 25-167)
T1 construct: His-tagged; also called hPD-1
T1 sequence (Q15116 25-167 limits assumed): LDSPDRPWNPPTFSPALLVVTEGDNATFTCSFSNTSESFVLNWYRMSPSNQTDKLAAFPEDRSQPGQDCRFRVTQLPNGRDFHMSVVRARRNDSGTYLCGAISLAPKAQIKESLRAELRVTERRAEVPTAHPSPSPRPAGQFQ
Experimental Details: SPR Carterra LSA;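 also: antibodies or fusion proteins amine-coupled on an HC30M chip, soluble His-tagged human or cynomolgus PD-1 titrated over them, non-regenerative kinetics, constants fitted from titration curves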
We begin with a simple list: items and their reported kon.
Express your answer in M⁻¹ s⁻¹, writing the number without its unit.

Abz1mod-hIgG4 (antibody, V domains shown) VH: QVQLVQSGSELKKPGASVKVSCKASGYTFTSYAMHWVRQAPGQGLEWMGYISPFTGRATYAQGFTGRFVFSLDTSVSTAYLQISSLKAEDTAVYYCARDYDYRYYYAMDYWGQGTTVTVSS VL: EIVLTQSPDFQSVTPKEKVTITCRASQSIPPQFLHWYQQKPDQSPKLLIKAASQRASGVPSRFSGSGSGTDFTLTINSLEAEDAATYYCHQFHSSPLTFGGGTKLEIKR
140000

Now let's try a different one.
Need kon, item OMC476pE4-hIgG4 (antibody, V domains shown) VH: DVQLVESGGGVVRPGESLRLSCAASGFTFSTDAMGWVRQAPGEGLEWVSLISGSGYSTYYADSVKGRFTISRDNSKNTLYLQMNSLTAEDTAVYYCAKNSLAFFDYWGLGTLVTVSS VL: QSVLTQPPSASGTPGQRVTISCSGGSSNIGRESVNWYQQLPGTAPKLLIYSTDRRPSGVPDRFSGSKSGTSASLAISGLQSEDEADYYCGTWDNDLNGWVFGGGTKLTVLG
79000
